assayed_target: TrkC (Homo sapiens, UniProt Q16288)
Sequence (Q16288 32-839): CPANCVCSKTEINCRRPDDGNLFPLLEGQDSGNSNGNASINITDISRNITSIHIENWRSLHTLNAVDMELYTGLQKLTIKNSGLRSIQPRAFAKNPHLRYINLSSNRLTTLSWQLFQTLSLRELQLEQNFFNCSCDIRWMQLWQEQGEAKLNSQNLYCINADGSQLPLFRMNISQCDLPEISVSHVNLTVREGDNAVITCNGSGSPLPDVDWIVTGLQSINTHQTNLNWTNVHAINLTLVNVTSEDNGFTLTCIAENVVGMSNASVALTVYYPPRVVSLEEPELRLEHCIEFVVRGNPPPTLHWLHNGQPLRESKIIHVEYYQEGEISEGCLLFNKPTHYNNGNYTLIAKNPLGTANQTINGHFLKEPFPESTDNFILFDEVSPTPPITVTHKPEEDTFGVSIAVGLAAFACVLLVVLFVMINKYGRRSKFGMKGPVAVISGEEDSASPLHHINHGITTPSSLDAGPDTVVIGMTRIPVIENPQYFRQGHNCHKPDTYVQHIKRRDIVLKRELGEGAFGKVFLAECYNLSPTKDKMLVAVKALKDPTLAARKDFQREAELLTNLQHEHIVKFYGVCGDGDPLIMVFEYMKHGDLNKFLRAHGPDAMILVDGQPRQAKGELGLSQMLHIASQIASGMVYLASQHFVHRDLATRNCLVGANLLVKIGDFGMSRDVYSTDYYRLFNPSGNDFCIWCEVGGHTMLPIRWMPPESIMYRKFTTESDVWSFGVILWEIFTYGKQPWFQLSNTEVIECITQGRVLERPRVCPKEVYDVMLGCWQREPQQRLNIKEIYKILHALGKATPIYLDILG
protocol_summary: HTRF KinEASE kinase assay, recombinant Human TRK enzyme, TrkC (NTRK3)
conditions_used: NTRK3 10 nM, read-out: TrkC Enz
endpoint_label: IC50 (nM)

// solved cases for IC50 follow
molecule	measurement_unit	IC50
CSc1cc(F)cc([C@H]2C[C@H](F)CN2c2ccc3ncc(C(=O)NC4CN(Cc5ccc(F)c(O)c5)C4)n3n2)c1 [Example 19]	nM	2.99
CSc1cc(F)cc([C@H]2C[C@H](F)CN2c2ccc3ncc(C(=O)N[C@@H]4COCCN(Cc5ccc(F)c(O)c5)C4)n3n2)c1 (single isomer, unassigned) [Example 24]	nM	17.3
CSc1cc(F)cc([C@H]2C[C@H](F)CN2c2ccc3ncc(C(=O)N[C@H]4CCN(Cc5cccc(OC(C)=O)c5)C4)n3n2)c1 [Example 28]	nM	4.88
CSc1ccc(F)cc1[C@H]1C[C@H](F)CN1c1ccc2ncc(C(=O)NC3CN(Cc4cccc(O)c4)C3)n2n1 [Example 5]	nM	2.11
CSc1ccc(F)cc1[C@H]1C[C@H](F)CN1c1ccc2ncc(C(=O)NCc3ccc(F)c(O)c3)n2n1 [Example 14]	nM	1.47

(1) COC(=O)c1cccc(CN2CC[C@H](NC(=O)c3cnc4ccc(N5C[C@@H](F)C[C@@H]5c5cc(F)cc(SC)c5)nn34)C2)c1 [Example 16]
(2) CSc1cc(F)cc([C@H]2C[C@H](F)CN2c2ccc3ncc(C(=O)N[C@H]4COCCN(Cc5ccc(F)c(O)c5)C4)n3n2)c1 (single isomer, unassigned) [Example 25]
Which is greater in IC50, the first item 1 or the second item 2 ? Refer to your chosen entry by its label in the reply. 2
(2: 8.72 nM, 1: 3.28 nM)
